Entries and their measured pIC50 follow.
- TARGET OR TEST SYSTEM: GCN2 (Homo sapiens, UniProt Q9P2K8)
- Sequence (Q9P2K8 whole entry): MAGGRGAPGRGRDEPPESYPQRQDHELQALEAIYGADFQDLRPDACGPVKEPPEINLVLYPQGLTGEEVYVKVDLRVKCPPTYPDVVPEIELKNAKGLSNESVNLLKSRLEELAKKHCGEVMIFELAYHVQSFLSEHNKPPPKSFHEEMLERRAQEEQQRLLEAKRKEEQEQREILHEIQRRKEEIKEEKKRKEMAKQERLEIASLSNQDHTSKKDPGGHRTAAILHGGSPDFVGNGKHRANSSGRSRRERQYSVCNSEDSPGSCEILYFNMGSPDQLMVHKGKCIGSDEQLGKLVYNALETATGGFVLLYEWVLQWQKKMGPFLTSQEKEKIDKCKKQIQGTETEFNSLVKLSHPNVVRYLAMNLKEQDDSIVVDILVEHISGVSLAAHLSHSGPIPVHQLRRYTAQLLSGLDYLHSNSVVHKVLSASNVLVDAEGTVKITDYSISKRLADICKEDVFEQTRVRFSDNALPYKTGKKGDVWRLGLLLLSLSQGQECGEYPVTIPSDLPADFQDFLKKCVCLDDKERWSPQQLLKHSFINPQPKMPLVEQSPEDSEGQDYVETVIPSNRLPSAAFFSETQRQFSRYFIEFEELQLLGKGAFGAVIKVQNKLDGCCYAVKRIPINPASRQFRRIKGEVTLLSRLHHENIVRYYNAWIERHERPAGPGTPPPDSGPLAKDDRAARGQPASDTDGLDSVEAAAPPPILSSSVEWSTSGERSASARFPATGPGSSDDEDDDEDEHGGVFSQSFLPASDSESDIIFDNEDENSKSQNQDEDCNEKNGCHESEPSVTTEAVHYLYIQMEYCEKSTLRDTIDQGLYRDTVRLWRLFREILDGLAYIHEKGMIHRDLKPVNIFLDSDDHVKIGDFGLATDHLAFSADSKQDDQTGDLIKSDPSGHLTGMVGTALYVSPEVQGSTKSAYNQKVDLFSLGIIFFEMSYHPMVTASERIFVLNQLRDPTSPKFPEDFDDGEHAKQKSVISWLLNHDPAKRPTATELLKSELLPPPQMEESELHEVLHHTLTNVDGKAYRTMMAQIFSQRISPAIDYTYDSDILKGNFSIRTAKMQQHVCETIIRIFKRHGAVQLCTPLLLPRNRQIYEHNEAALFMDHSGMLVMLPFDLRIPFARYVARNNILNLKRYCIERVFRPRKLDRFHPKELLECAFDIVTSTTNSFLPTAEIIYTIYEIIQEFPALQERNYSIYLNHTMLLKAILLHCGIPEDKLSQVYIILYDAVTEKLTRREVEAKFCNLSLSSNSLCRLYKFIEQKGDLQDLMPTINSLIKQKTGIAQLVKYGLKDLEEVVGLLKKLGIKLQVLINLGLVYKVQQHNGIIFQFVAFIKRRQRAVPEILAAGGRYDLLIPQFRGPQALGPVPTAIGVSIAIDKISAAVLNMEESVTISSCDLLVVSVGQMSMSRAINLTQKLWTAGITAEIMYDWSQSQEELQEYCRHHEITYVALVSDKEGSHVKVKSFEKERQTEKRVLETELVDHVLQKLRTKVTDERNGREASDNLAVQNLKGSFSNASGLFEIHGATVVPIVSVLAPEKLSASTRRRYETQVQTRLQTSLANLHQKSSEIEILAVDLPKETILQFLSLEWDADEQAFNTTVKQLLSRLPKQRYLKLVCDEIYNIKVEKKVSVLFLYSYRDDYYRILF
- ASSAY INFO: GCN2 enzymatic endpoint assay: phosphorylation of GFP-eIF2α measured by TR-FRET (Lanthascreen)
- Format: biochemical
- REPORTED CONDITIONS: tested as described in Example 77; compound and/or hydrochloride, dihydrochloride or trifluoroacetic acid salt; read-out: IC 50 Activity
- Experimental: The Enzymatic assay was run as an endpoint assay to quantify the activity of the serine/threonine GCN2 kinase by way of measuring phosphorylation of its natural substrate, eiF2α. The enzymatic reaction was initiated by incubating with 2 μM ATP and 80 nM of GFP labeled eiF2a substrate at room temperature and then stopped after 90 minutes with EDTA. The amount of phosphorylated eIF2α is determined by TR-FRET (Lanthascreen). […]
pIC50: −log10 of the molar value.

CNC(=O)CCC1(C#N)CC[C@@H](Nc2ncc3c(Br)nn(-c4ccc(-c5nnc(C)s5)cc4)c3n2)C1 (some centres unmarked); > 7.60
CNC(=O)N1CC[C@@H](Nc2ncc3c(Br)nn(-c4ccc(-c5nnc(C)s5)cc4)c3n2)C1; 6.70 to 7.60
CNC(=O)[C@]1(C)CC[C@@H](Nc2ncc3c(Br)nn(-c4cc(C(C)CO)c5ncccc5c4)c3n2)C1 (some centres unmarked); > 7.60
CNC(=O)[C@]1(C)CC[C@@H](Nc2ncc3c(Br)nn(-c4cc(N5CCNCC5)c5ncccc5c4)c3n2)C1; 6.70 to 7.60
CNC(=O)[C@]1(C)CC[C@@H](Nc2ncc3c(Br)nn(-c4cc(CC5(N)CC5)c5ncccc5c4)c3n2)C1; 6.70 to 7.60
CNC(=O)[C@]1(C)CC[C@@H](Nc2ncc3c(Br)nn(-c4ccc(-c5nnc(C(=O)N6CCOCC6)s5)cc4)c3n2)C1; 6.70 to 7.60
Cc1nnc(-c2ccc(-n3nc(Br)c4cnc(N[C@@H]5CC[C@@](C)(C(=O)O)C5)nc43)cc2CCN)s1; 6.70 to 7.60

Continue with the next compound.
Given CNC(=O)[C@]1(C)CC[C@@H](Nc2ncc3c(Br)nn(-c4cc(CO)c5ncccc5c4)c3n2)C1 , state its recorded pIC50.
> 7.60

====

- TARGET OR TEST SYSTEM: GCN2 (Homo sapiens, UniProt Q9P2K8)
- ASSAY INFO: GCN2 enzymatic endpoint assay: phosphorylation of GFP-eIF2α measured by TR-FRET (Lanthascreen)
- Assay type: biochemical
- REPORTED CONDITIONS: tested as described in Example 77; compound and/or hydrochloride, dihydrochloride or trifluoroacetic acid salt; read-out: IC 50 Activity
Entries and their IC50

Some solved entries appear below for comparison.
CNC(=O)C1(C)CC[C@@H](Nc2ncc3c(Br)nn(-c4ccc(-c5cnccn5)cc4)c3n2)C1 (stereo partly shown); 25 to 200 nM
CNC(=O)C1(C)CC[C@@H](Nc2ncc3c(Br)nn(-c4cc(C)cc(CO)c4)c3n2)C1 (stereo partly shown); 25 to 200 nM

I'm curious: which IC50 was measured for COc1cc(-n2nc(Br)c3cnc(N[C@@H]4CC[C@@H](C(=O)NCCS(C)(=O)=O)C4)nc32)ccn1 tested on GCN2 (Homo sapiens, UniProt Q9P2K8)?
500 to 1000 nM

Same lookup for CNC(=O)[C@]1(C)CC[C@@H](Nc2ncc3c(Br)nn(-c4ccc(-c5nnc(C)[nH]5)cc4)c3n2)C1 , please.
25 to 200 nM

Here is the next compound: CNC(=O)[C@]1(C)CC[C@@H](Nc2ncc3c(Br)nn(-c4ccc(-c5ncco5)c(C(C)(C)CN)c4)c3n2)C1
25 to 200 nM

Check CC1(C(=O)N2CC3CCC(C2)O3)CC[C@@H](Nc2ncc3c(Br)nn(-c4cc(F)c5ncccc5c4)c3n2)C1 (stereo partly shown) too.
< 25 nM

Check CNC(=O)C1(C)CC[C@@H](Nc2ncc3c(Br)nn(-c4ccc(-c5noc(C)n5)cc4)c3n2)C1 (stereo partly shown) too.
25 to 200 nM
